This collection of values is drawn from patent US20140120095A1.

Molecular target: T1, recombinant human DLL4 (C-terminally His-tagged extracellular domain, R&D Systems) (human, UniProt Q9NR61 25-522, biotinylated in the competition ELISA)
T1 construct: also called rhDLL4; hDLL4
T1 sequence (Q9NR61 25-522): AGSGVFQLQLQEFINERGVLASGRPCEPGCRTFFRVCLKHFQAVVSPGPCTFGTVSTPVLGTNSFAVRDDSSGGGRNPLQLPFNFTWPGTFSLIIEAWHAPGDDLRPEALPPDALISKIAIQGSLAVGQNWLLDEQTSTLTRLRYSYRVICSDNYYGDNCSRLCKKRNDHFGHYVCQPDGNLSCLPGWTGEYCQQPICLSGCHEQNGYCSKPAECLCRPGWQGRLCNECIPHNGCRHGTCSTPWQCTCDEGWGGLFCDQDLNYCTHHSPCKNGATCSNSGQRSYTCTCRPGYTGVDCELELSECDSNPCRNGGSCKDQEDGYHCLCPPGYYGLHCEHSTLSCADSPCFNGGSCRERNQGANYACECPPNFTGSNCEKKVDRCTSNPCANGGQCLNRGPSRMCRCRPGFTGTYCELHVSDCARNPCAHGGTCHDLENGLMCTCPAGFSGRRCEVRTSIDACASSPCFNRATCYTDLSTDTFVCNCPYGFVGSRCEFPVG
Assay: SPR (Biacore), rhDLL4
Protocol: Kinetic analysis to determine the affinity of the DII4-VHH interaction is performed by Surface Plasmon Resonance (SPR) on a Biacore T100 instrument. […] If possible, data are evaluated by fitting a 1:1 interaction model (Langmuir binding) onto the binding curves. The affinity constant KD is calculated from resulting association and dissociation rate constants (kₐ) and […].

binder	koff
DLLBII015 (VHH, not shown: small tags and cut ends) VHH: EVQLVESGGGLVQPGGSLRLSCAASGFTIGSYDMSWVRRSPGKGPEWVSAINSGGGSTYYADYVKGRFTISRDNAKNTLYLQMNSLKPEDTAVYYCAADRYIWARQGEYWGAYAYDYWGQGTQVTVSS	0.00047 s⁻¹
DLLBII133G05 (VHH, not shown: small tags and cut ends) VHH: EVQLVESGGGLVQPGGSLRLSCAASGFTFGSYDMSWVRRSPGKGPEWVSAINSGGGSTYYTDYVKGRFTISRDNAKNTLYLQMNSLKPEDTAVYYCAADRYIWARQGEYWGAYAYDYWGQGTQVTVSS	0.00047 s⁻¹
DLLBII129B05 (VHH, not shown: small tags and cut ends) VHH: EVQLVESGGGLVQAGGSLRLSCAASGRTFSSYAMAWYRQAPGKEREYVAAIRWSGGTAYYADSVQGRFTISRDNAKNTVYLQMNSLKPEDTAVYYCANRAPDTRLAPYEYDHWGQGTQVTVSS	7.9e-05 s⁻¹
DLLBII115A05 (VHH, not shown: small tags and cut ends, parent VHH; also called 115A05 (wt); 115A5) VHH: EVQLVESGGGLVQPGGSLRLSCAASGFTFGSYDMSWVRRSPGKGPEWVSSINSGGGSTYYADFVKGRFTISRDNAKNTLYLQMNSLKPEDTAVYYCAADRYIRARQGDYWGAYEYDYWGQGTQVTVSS	0.004 s⁻¹
DLLBII130B03 (VHH, not shown: small tags and cut ends) VHH: EVQLVESGGGLVQAGGSLRLSCAASGRTFSSYAMAWYRQAPGKEREYVAAIRWSGGTAYYADSVQGRFTISRDNAKNTVYLQMNSLKPEDTAVYYCANRAPDTRLAPYLYDYWGQGTQVTVSS	6.8e-05 s⁻¹
